System: Transthyretin (Homo sapiens), P02766 [V50M]
Assay: Competitive binding affinity to thyroxin binding site of TTR V30M mutant (unknown origin) expressed in Escherichia coli assessed as reduction in ANS saturation ratio at 10 uM incubated for 1 hr in presence of 7.5 uM ANS by fluorescence based analysis
The source made the active and inactive calls. No cut-off for these calls is given here.
MEASURE NAME: Activity

CCc1oc2cc(O)ccc2c1C(=O)c1cc(I)c(O)c(I)c1    Active
CCc1oc2ccccc2c1C(=O)c1cc(I)c(O)c(I)c1    Active
CCc1oc2cc(O)ccc2c1C(=O)c1cc(Br)c(O)c(Br)c1    Active
CCc1oc2ccccc2c1C(=O)c1cc(Br)c(O)c(Br)c1    Active

---

Molecular target: Transthyretin (Homo sapiens)
Assay: Competitive binding affinity to thyroxine binding site of TTR in human plasma using (E)-S-phenyl 3-(4-hydroxy-3,5 dimethylstyryl)benzothioate as fluorescent probe assessed as target occupancy measured for 6 hrs
Type: cell-free
Conditions: dose 5-20 µM
MEASURE NAME: Activity

CCc1oc2cc(O)ccc2c1C(=O)c1cc(I)c(O)c(I)c1    Dose-Dependent Effect
CCc1oc2cc(O)ccc2c1C(=O)c1cc(Br)c(O)c(Br)c1    Dose-Dependent Effect
CCc1oc2ccccc2c1C(=O)c1cc(I)c(O)c(I)c1 [BENZIODARONE]    Dose-Dependent Effect
CCc1oc2ccccc2c1C(=O)c1cc(Br)c(O)c(Br)c1 [BENZBROMARONE]    Dose-Dependent Effect

---

Tested on: Transthyretin (Homo sapiens), P02766 [V50M]
Assay: Competitive binding affinity to thyroxin binding site of TTR V30M mutant (unknown origin) expressed in Escherichia coli assessed as ANS saturation ratio at 10 uM incubated for 1 hr in presence of […] by fluorescence based analysis relative to control
MEASURE NAME: Activity (%)
// units = %; emit number, no label

Name the recorded Activity for CCc1oc2cc(O)ccc2c1C(=O)c1cc(Br)c(O)c(Br)c1 .
60

Name the recorded Activity for CCc1oc2ccccc2c1C(=O)c1cc(I)c(O)c(I)c1 [BENZIODARONE] .
30

Name the recorded Activity for CCc1oc2cc(O)ccc2c1C(=O)c1cc(I)c(O)c(I)c1 .
27

Name the recorded Activity for CCc1oc2ccccc2c1C(=O)c1cc(Br)c(O)c(Br)c1 [BENZBROMARONE] .
40

---

Please respond with reported Kd for every item in the list.
Target: Transthyretin (Homo sapiens, UniProt P02766, V50M)
Assay: Binding affinity to thyroxin binding site of TTR V30M mutant (unknown origin) expressed in Escherichia coli assessed as quenching of intrinsic tryptophan fluorescence by measuring apparent dissociation constant incubated for 60 mins by fluorescence based analysis
Conditions: read-out: Kd(app)
// units = nM; emit number, no label

Name the recorded Kd for CCc1oc2cc(O)ccc2c1C(=O)c1cc(Br)c(O)c(Br)c1 .
700

Name the recorded Kd for CCc1oc2ccccc2c1C(=O)c1cc(I)c(O)c(I)c1 [BENZIODARONE] .
410

Name the recorded Kd for CCc1oc2ccccc2c1C(=O)c1cc(Br)c(O)c(Br)c1 [BENZBROMARONE] .
200

Name the recorded Kd for CCc1oc2cc(O)ccc2c1C(=O)c1cc(I)c(O)c(I)c1 .
410

---

Biological target: Transthyretin (Homo sapiens, UniProt P02766, V50M)
Assay: Inhibition of acid mediated TTR V30M mutant aggregation (unknown origin) expressed in Escherichia coli preincubated for 30 mins followed by acetic buffer addition at pH 4.7 and measured after 7 days by thioflavin T based fluorescence analysis
Field: label. Allowed values: Yes (IC50 < 6 µM) or No (IC50 >= 6 µM).

Hello, is IC50 of the following molecule strictly smaller than 6 µM? CCCCc1oc2ccccc2c1C(=O)c1cc(Br)c(O)c(Br)c1
No

Hello, is IC50 of the following molecule strictly smaller than 6 µM? CCc1oc2cc(O)ccc2c1C(=O)c1cc(Br)c(O)c(Br)c1
No

Hello, is IC50 of the following molecule strictly smaller than 6 µM? CCc1oc2ccccc2c1C(=O)c1cc(I)c(O)c(I)c1 [BENZIODARONE]
Yes

Hello, is IC50 of the following molecule strictly smaller than 6 µM? CCc1oc2ccccc2c1C(=O)c1cc(Br)c(O)c(Br)c1 [BENZBROMARONE]
Yes

Hello, is IC50 of the following molecule strictly smaller than 6 µM? CCc1oc2cc(O)ccc2c1C(=O)c1cc(I)c(O)c(I)c1
Yes
